Assay: cAMP Responsive Elements (CRE) small molecule antagonists, cell-based qHTS assay: qHTS cell viability counter screen (AID 2060913); further: nearly all actives have a fitted effect of over 40% in size
Details: CRE-bla HEK293T viability, CellTiter-Glo luminescence, 5 h; series mostly up to 92.4 µM
Description: U.S. Tox21 Program National Center for Advancing Translational Sciences [NCATS] Division of Preclinical Innovation [DPI] U.S. Environmental Protection Agency [EPA] National Institutes of Environmental Health Sciences [NIEHS] National Toxicology Program [NTP] U.S. Food and Drug Administration [FDA] […] The activation of the report gene under culture conditions can be detected by fluorescence intensity. […]
Results filed as inconclusive are left out. Active and inactive are the calls of the source. The call rests on the fitted dose curve; in most records, active means well fitted cell-killing curve with a large enough effect in the repeat runs; inconclusive means weak or mixed curves, or effect the other way; inactive means flat fitted curve, though single readings scatter.
endpoint_label: viability change, negative = cytotoxic

# compound, viability change, negative = cytotoxic
measured = [
    ("C=C(C)C(=O)OCC[N+](C)(C)C", "inactive"),
    ("O=C(OCc1ccccc1)c1ccc(O)cc1", "inactive"),
    ("NC(=O)Nc1nc2ccccc2[nH]1", "inactive"),
    ("O[C@@H](COc1cccc2ncccc12)CN1CCN(C2c3ccccc3[C@@H]3[C@H](c4ccccc42)C3(F)F)CC1 (some centres not stated)", "inactive"),
    ("SCCOCCOCCS", "inactive"),
    ("c1ccc(-c2ccccn2)nc1", "inactive"),
]

For the next question, use this compound.
Input line: Fill in the blank: the reported viability change, negative = cytotoxic of "CCN(CC)CCOc1ccc(Cc2ccccc2)cc1" is ____.
Output line: inactive
